Cited source: ChEMBL document CHEMBL1275265

- Tested on: Aspergillus fumigatus
- Test name: Antifungal activity against Aspergillus fumigatus ATCC 26934 by agar dilution method
- Assay type: functional
A collection of compounds and their measured MIC
Assay metric: MIC

compound=Cc1c(N2C(=O)C(Cl)=C(NCc3ccccc3)C2=O)c(=O)n(-c2ccccc2)n1C assay_metric=MIC result="100 µg/mL"
compound=Cc1c(N2C(=O)C(Cl)=C(Nc3ccc(Br)cc3)C2=O)c(=O)n(-c2ccccc2)n1C assay_metric=MIC result="> 100 µg/mL"
compound=Cc1c(N2C(=O)C(Cl)=C(Nc3ccc(Cl)c(Cl)c3)C2=O)c(=O)n(-c2ccccc2)n1C assay_metric=MIC result="> 100 µg/mL"
compound=CCc1ccc(NC2=C(Cl)C(=O)N(c3c(C)n(C)n(-c4ccccc4)c3=O)C2=O)cc1 assay_metric=MIC result="> 100 µg/mL"
compound=Cc1c(N2C(=O)C(Cl)=C(Nc3ccccc3)C2=O)c(=O)n(-c2ccccc2)n1C assay_metric=MIC result="> 100 µg/mL"
compound="CC(=O)N1CCN(c2ccc(OCC3COC(Cn4ccnc4)(c4ccc(Cl)cc4Cl)O3)cc2)CC1 (configuration not stated) [KETOCONAZOLE]" assay_metric=MIC result="7 µg/mL"
compound=Cc1c(N2C(=O)C(Cl)=C(Nc3ccc(F)cc3)C2=O)c(=O)n(-c2ccccc2)n1C assay_metric=MIC result="> 100 µg/mL"

* * *

- Test name: Toxicity in Artemia salina assessed as mortality after 24 hrs
- Format: organism-based
- Assay conditions: in vivo
Assay metric: LC50 at 24 h

smiles=Cc1c(N2C(=O)C(Cl)=C(Nc3ccc(F)cc3)C2=O)c(=O)n(-c2ccccc2)n1C result="> 1000 µg/mL"
smiles=Cc1c(N2C(=O)C(Cl)=C(Nc3ccc(Br)cc3)C2=O)c(=O)n(-c2ccccc2)n1C result="> 1000 µg/mL"
smiles=COc1cccc(NC2=C(Cl)C(=O)N(c3c(C)n(C)n(-c4ccccc4)c3=O)C2=O)c1 result="> 1000 µg/mL"
smiles=CCc1ccc(NC2=C(Cl)C(=O)N(c3c(C)n(C)n(-c4ccccc4)c3=O)C2=O)cc1 result="> 1000 µg/mL"
smiles=Cc1c(N2C(=O)C(Cl)=C(c3ccc[nH]3)C2=O)c(=O)n(-c2ccccc2)n1C result="> 1000 µg/mL"
smiles=Cc1c(N2C(=O)C(Cl)=C(Nc3ccc(Cl)c([N+](=O)[O-])c3)C2=O)c(=O)n(-c2ccccc2)n1C result="94.2 µg/mL"
smiles=Cc1c(N2C(=O)C(Cl)=C(N3CCN(c4ccccn4)CC3)C2=O)c(=O)n(-c2ccccc2)n1C result="> 1000 µg/mL"
smiles=Cc1c(N2C(=O)C(Cl)=C(Nc3cccc(C(=O)O)c3)C2=O)c(=O)n(-c2ccccc2)n1C result="> 1000 µg/mL"
smiles=Cc1cc(C)cc(NC2=C(Cl)C(=O)N(c3c(C)n(C)n(-c4ccccc4)c3=O)C2=O)c1 result="> 1000 µg/mL"
smiles=Cc1c(N2C(=O)C(Cl)=C(NCc3ccccc3)C2=O)c(=O)n(-c2ccccc2)n1C result="> 1000 µg/mL"
smiles=Cc1c(N2C(=O)C(Cl)=C(Nc3cccc(Cl)c3)C2=O)c(=O)n(-c2ccccc2)n1C result="86.2 µg/mL"
smiles=Cc1c(N2C(=O)C(Cl)=C(Nc3ccc(Cl)cc3)C2=O)c(=O)n(-c2ccccc2)n1C result="> 1000 µg/mL"
smiles=Cc1c(N2C(=O)C(Cl)=C(N3CCCCC3)C2=O)c(=O)n(-c2ccccc2)n1C result="> 1000 µg/mL"
smiles=COc1ccc(NC2=C(Cl)C(=O)N(c3c(C)n(C)n(-c4ccccc4)c3=O)C2=O)cc1 result="> 1000 µg/mL"
smiles=Cc1c(N2C(=O)C(Cl)=C(Nc3ccc(C(=O)O)cc3)C2=O)c(=O)n(-c2ccccc2)n1C result="> 1000 µg/mL"
smiles=Cc1c(N2C(=O)C(Cl)=C(Nc3ccccc3)C2=O)c(=O)n(-c2ccccc2)n1C result="> 1000 µg/mL"
smiles=COc1cc(NC2=C(Cl)C(=O)N(c3c(C)n(C)n(-c4ccccc4)c3=O)C2=O)cc(OC)c1 result="249 µg/mL"
smiles=Cc1cccc(NC2=C(Cl)C(=O)N(c3c(C)n(C)n(-c4ccccc4)c3=O)C2=O)c1 result="90.5 µg/mL"
smiles=Cc1c(N2C(=O)C(Cl)=C(NCCc3ccccc3)C2=O)c(=O)n(-c2ccccc2)n1C result="> 1000 µg/mL"
smiles=Cc1c(N2C(=O)C(Cl)=C(Nc3cccc([N+](=O)[O-])c3)C2=O)c(=O)n(-c2ccccc2)n1C result="> 1000 µg/mL"
smiles=Cc1ccc(NC2=C(Cl)C(=O)N(c3c(C)n(C)n(-c4ccccc4)c3=O)C2=O)cc1 result="> 1000 µg/mL"
smiles=Cc1c(N2C(=O)C(Cl)=C(Nc3ccc(Cl)c(Cl)c3)C2=O)c(=O)n(-c2ccccc2)n1C result="> 1000 µg/mL"
